# target under test: T1, IL-2Rβ/γ on M07e cells (human, UniProt P14784 27-551; P31785 23-369)
# T1 sequence (looked up) 1: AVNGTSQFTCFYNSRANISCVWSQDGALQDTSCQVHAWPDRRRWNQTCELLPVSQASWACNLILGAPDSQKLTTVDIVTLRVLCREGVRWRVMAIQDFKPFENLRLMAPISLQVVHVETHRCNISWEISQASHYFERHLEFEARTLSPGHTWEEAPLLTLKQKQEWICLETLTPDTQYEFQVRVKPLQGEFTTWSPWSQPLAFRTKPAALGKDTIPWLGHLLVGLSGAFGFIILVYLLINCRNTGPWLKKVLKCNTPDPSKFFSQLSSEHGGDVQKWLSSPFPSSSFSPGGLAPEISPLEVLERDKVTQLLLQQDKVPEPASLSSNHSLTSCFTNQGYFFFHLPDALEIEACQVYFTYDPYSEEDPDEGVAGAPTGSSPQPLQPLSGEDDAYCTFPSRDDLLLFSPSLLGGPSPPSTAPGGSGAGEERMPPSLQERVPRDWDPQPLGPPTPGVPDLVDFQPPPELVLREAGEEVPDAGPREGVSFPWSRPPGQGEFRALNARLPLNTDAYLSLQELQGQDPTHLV
# T1 sequence (looked up) 2: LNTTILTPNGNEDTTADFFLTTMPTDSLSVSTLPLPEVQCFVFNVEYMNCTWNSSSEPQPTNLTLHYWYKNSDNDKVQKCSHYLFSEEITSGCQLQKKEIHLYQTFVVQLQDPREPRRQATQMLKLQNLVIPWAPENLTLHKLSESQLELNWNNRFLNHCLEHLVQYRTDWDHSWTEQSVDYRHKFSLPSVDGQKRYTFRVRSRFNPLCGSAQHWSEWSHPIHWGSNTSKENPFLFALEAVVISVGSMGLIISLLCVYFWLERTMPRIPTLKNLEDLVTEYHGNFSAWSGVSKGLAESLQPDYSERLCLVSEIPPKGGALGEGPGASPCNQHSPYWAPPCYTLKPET
# measurement description: cell-based or functional assay
property measured: M07e cell proliferation activity (%) at 4.1 nM
The answer should read as a number with its unit following.

Query: Form field: reported M07e cell proliferation activity (%) at 4.1 nM of PEGylated IL-2 mutant (PEG-IL-2v) (ligand, PEGylated (site not stated)) APASSSTKKTQLQLEHLLLDLQMILQGISNYKNPKLTRMLTAKFYMPKKATELKHLQCLEEELKPLEEVLQGAQSKNFHLRPRDLISNINVIVLELKGSETTFMCEYADETATIVEFLNRWITFAQSIISTLT
Response: 11.2%
